Form field: Kd (one value per entry).
- SYSTEM UNDER TEST: Fc-tagged human NKp46 (Homo sapiens, UniProt O76036)
- Construct: purchased ACROBiosystems NC1-H5257
- Sequence (O76036 22-304): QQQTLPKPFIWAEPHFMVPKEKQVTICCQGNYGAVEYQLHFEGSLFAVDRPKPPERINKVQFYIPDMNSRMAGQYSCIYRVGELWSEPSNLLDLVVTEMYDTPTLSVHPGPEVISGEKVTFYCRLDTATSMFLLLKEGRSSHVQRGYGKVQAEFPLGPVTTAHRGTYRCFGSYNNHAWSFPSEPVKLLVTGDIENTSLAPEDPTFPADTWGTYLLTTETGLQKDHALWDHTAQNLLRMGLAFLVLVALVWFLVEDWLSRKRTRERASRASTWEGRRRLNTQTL
- TEST NAME: NKp46 SPR assay (Method 1 and/or Method 2)
- Type: binding
- SETTINGS: SPR Method 1 and/or Method 2, Table 3B
Numbered stars: 1 amine (or outer) side, 2 acyl side, 3 side chain; on linkers, the order of the positions; unused ones are H or OH. Bridge positions count the residues as written; N and C are the ends. Square brackets hold non-standard residues; d marks the D form. Peptide text beside a SMILES is read from it. TATA = O=C(CC[*:1])N1CN(C(=O)CC[*:2])CN(C(=O)CC[*:3])C1; Pip = O=C(O)[C@@H]1CCCCN1
All answers are understood in µM, so give the number only.

The cases that follow already have their Kd on record.
- CSCC[C@@H]1NC(=O)[C@@H]2CSCCC(=O)N3CN(CN(C3)C(=O)CCSC[C@@H](C(=O)N[C@@H](C)C(N)=O)NC(=O)[C@@H]3CCCN3C(=O)[C@H](Cc3ccccc3)NC(=O)[C@H](CCCCN)NC1=O)C(=O)CCSC[C@H](NC(=O)[C@H](C)N)C(=O)N[C@@H](CC(N)=O)C(=O)N[C@@H](CC(C)C)C(=O)N[C@@H](CCC(N)=O)C(=O)N[C@@H](CC(N)=O)C(=O)N1CCC[C@H]1C(=O)N2 [BCY15102, A-(SEQ ID NO: 2)-A] (H-ACNLQNPCMKFPCA-NH2; linker 2-8-13 via TATA; C-terminus assumed): 1.09
- CC[C@H](C)[C@@H]1NC(=O)CNC(=O)[C@H](Cc2c[nH]c3cc(C)ccc23)NC(=O)[C@H](CCC(N)=O)NC(=O)[C@@H]2CSCCC(=O)N3CN(CN(C3)C(=O)CCSC[C@@H](C(=O)N[C@@H](C)C(N)=O)NC1=O)C(=O)CCSC[C@H](NC(=O)[C@H](C)N)C(=O)N[C@@H](CC(=O)O)C(=O)N[C@@H](CC(C)C)C(=O)N[C@@H]([C@@H](C)O)C(=O)N[C@@H]([C@@H](C)O)C(=O)N[C@@H](Cc1c[nH]cn1)C(=O)N[C@@H](CC(N)=O)C(=O)N2 [BCY19722, A-(SEQ ID NO: 160)-A]: 1.46
- CC[C@H](C)[C@@H]1NC(=O)CNC(=O)[C@H](Cc2c[nH]c3ccccc23)NC(=O)[C@H](C)NC(=O)[C@@H]2CSCCC(=O)N3CN(CN(C3)C(=O)CCSC[C@@H](C(=O)N[C@@H](C)C(N)=O)NC1=O)C(=O)CCSC[C@H](NC(=O)[C@H](C)N)C(=O)N[C@@H](CC(=O)O)C(=O)N[C@@H](CC(C)C)C(=O)N[C@@H]([C@@H](C)O)C(=O)N[C@@H]([C@@H](C)O)C(=O)N[C@@H](Cc1c[nH]cn1)C(=O)N[C@@H](CC(N)=O)C(=O)N2 [BCY18269, A-(SEQ ID NO: 119)-A] (H-ACDLTTHNCAWGICA-NH2; linker 2-9-14 via TATA): 1.64
- CSCC[C@@H]1NC(=O)[C@@H]2CSCCC(=O)N3CN(CN(C3)C(=O)CCSC[C@H](N)C(=O)N[C@@H](CC(N)=O)C(=O)N[C@@H](CC(C)C)C(=O)N[C@@H](CCC(N)=O)C(=O)N[C@@H](C)C(=O)N3CCC[C@H]3C(=O)N2)C(=O)CCSC[C@@H](C(=O)N[C@@H](C)C(N)=O)NC(=O)[C@H](C(C)C)NC(=O)[C@H](CCCCN)NC(=O)CNC(=O)[C@H]([C@@H](C)O)NC(=O)[C@H](CC(C)C)NC1=O [BCY19694, (SEQ ID NO: 4)-A] (H-CNLQAPCMLTGKVCA-NH2; linker 1-7-14 via TATA): 2.51
- CSCC[C@@H]1NC(=O)[C@@H]2CSCCC(=O)N3CN(CN(C3)C(=O)CCSC[C@@H](C(=O)N[C@@H](C)C(N)=O)NC(=O)[C@H](C(C)C)NC(=O)[C@H](CCCCN)NC(=O)CNC(=O)[C@H]([C@@H](C)O)NC(=O)[C@H](CC(C)C)NC1=O)C(=O)CCSC[C@H](NC(=O)[C@H](C)N)C(=O)N[C@@H](CC(N)=O)C(=O)N[C@@H](CC(C)C)C(=O)N[C@@H](CCC(N)=O)C(=O)N[C@@H](C)C(=O)N1CCCC[C@H]1C(=O)N2 [BCY19701, A-(SEQ ID NO: 92)-A] (H-ACNLQA[Pip]CMLTGKVCA-NH2; linker 2-8-15 via TATA): 4.03

// Kd lookup, key: CC(=O)N[C@H]1CSCCC(=O)N2CN3CN(C2)C(=O)CCSC[C@H](NC(=O)[C@H](CC(C)C)NC(=O)[C@H](Cc2ccc(O)cc2)NC(=O)[C@H](CC(=O)O)NC(=O)[C@@H]2CCCN2C(=O)[C@H](CC2CCC2)NC(=O)[C@H](CCO)NC1=O)C(=O)N[C@H](C)C(=O)N[C@@H](CC(=O)O)C(=O)N[C@@H](CCC(=O)O)C(=O)N[C@@H](Cc1ccc(O)cc1)C(=O)N[C@H](C(N)=O)CSCCC3=O [BCY18434, Ac-(SEQ ID NO: 137)]
0.044

Please report the recorded Kd for CC[C@H](C)[C@@H]1NC(=O)CNC(=O)[C@H](Cc2c[nH]c3ccccc23)NC(=O)[C@H](CCC(N)=O)NC(=O)[C@@H]2CSCCC(=O)N3CN(CN(C3)C(=O)CCSC[C@H](N)C(=O)N[C@@H](CC(=O)O)C(=O)N[C@@H](CC(C)C)C(=O)N[C@@H]([C@@H](C)O)C(=O)N[C@@H]([C@@H](C)O)C(=O)N[C@@H](Cc3c[nH]cn3)C(=O)N[C@@H](CC(N)=O)C(=O)N2)C(=O)CCSC[C@@H](C(=O)N[C@@H](C)C(N)=O)NC1=O [BCY19718, (SEQ ID NO: 11)-A] (H-CDLTTHNCQWGICA-NH2; linker 1-8-13 via TATA) .
1.11

----------
- SYSTEM UNDER TEST: Fc-tagged human NKp46 (Homo sapiens, UniProt O76036)
Numbered stars: 1 amine (or outer) side, 2 acyl side, 3 side chain; on linkers, the order of the positions; unused ones are H or OH. Bridge positions count the residues as written; N and C are the ends. Square brackets hold non-standard residues; d marks the D form. Peptide text beside a SMILES is read from it. TATA = O=C(CC[*:1])N1CN(C(=O)CC[*:2])CN(C(=O)CC[*:3])C1; Cba = N[C@@H](CC1CCC1)C(=O)O; dNle = CCCC[C@@H](N)C(=O)O
# pKd per record follows
// pKd is dimensionless: -log10 of concentration (M)

* CC[C@H](C)[C@@H]1NC(=O)CNC(=O)[C@H](Cc2c[nH]c3ccccc23)NC(=O)[C@H](CCC(N)=O)NC(=O)[C@@H]2CSCCC(=O)N3CN(CN(C3)C(=O)CCSC[C@H](N)C(=O)N[C@@H](CC(=O)O)C(=O)N[C@@H](CC(C)C)C(=O)N[C@@H]([C@@H](C)O)C(=O)N[C@@H]([C@@H](C)O)C(=O)N[C@@H](Cc3c[nH]cn3)C(=O)N[C@@H](CC(N)=O)C(=O)N2)C(=O)CCSC[C@@H](C(N)=O)NC1=O [BCY18262, (SEQ ID NO: 11)] | 5.50

Looking for the measured pKd of CCCC[C@H]1NC(=O)[C@@H]2CSCCC(=O)N3CN(CN(C3)C(=O)CCSC[C@H](NC(C)=O)C(=O)N[C@@H](Cc3ccc(O)cc3)C(=O)N[C@@H](CC3CCC3)C(=O)N3CCC[C@H]3C(=O)N[C@@H](CC(=O)O)C(=O)N[C@@H](Cc3ccc(O)cc3)C(=O)N[C@@H](CC(C)C)C(=O)N2)C(=O)CCSC[C@@H](C(N)=O)NC(=O)[C@H](Cc2ccc(O)cc2)NC(=O)[C@H](CCC(=O)O)NC(=O)[C@H](CC(=O)O)NC1=O [BCY19685, Ac-(SEQ ID NO: 149)] (Ac-CY[Cba]PDYLC[dNle]DEYC-NH2; linker 1-8-13 via TATA) , can you help?
8.00
